Task for the reader: assign each of the following variants its reported aptazyme ON/OFF ratio.
B1: Pistol ribozyme (parent)
chain: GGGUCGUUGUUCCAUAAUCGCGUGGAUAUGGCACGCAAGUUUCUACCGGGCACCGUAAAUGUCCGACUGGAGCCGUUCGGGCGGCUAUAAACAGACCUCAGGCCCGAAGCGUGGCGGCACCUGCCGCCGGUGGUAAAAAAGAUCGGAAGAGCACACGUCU

variants of: B1; experiment: aptazyme ON/OFF ratio, guanine; higher = stronger switching; co-transcriptional cleavage with and without guanine
Numbers only.

U7C U8G G9C U10A U11C C13U ... 1.01
U7G U8A G9C U11A C13G ... 1.02
U7G U8C G9A U10A U11G C12U C13G ... 1.2
U8G G9C C12G C13G ... 1.03
U7C U10C U11A C13G ... 1.21
U7C U8A G9A U10C U11A C12A C13A ... 1.13
U7C U8G U11A C12A C13U ... 1.13
U7C U8A G9C U10G C13G ... 1.11

For the 3 variants below, give their aptazyme ON/OFF ratio values.
1. U7A G9A U10G C12A C13G
2. U7A G9C U10G U11C C12U
3. U7A U8G G9U U10G U11G C12A

Output:
1. 1.15
2. 1.04
3. 1.38
